- Assay system: TRPML1 (Homo sapiens, UniProt Q9GZU1)
- Sequence (Q9GZU1 17-572 limits assumed): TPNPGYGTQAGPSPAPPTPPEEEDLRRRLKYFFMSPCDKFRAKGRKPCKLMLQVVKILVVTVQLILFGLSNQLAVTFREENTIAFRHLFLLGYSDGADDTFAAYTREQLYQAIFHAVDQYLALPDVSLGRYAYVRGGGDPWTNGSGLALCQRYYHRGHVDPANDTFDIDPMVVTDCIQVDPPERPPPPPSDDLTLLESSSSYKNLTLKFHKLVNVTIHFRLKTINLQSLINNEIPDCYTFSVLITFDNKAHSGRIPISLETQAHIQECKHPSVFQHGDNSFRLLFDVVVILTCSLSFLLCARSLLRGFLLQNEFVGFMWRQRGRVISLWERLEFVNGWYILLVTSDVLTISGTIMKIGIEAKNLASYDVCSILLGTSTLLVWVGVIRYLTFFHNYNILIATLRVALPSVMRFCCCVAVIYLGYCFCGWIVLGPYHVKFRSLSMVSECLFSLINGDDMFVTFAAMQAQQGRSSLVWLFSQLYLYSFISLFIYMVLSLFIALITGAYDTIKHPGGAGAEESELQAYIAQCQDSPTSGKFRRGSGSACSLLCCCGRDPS
- Test name: Calcium flux in HEK293 overexpressing TRPML1 plasma membrane variant (FLIPR, Calcium 6 dye)
- Experimental setup: HEK293/TRPML1-PM clone A5 cells; 4-parameter logistic fit; read-out: TRPML1 calcium flux (FLIPR) dose response: EC50
Hi! Could you tag entries with EC50 below 800 nM as YES, and those at or above as NO? Much appreciated.

Example cases with answers are listed next.
| Compound | Cat |
| --- | --- |
| CN(C)S(=O)(=O)c1ccc(S(=O)(=O)Nc2ccccc2N(CC(F)(F)F)C2CCCCC2)cc1 | YES |
| CN(c1ccccc1NS(=O)(=O)c1ccc(S(=O)(=O)N(C)C)cc1)C1CCC(C)(C)C1 (centres unmarked) | YES |
| CN(CC1CC1)c1ccccc1NS(=O)(=O)c1ccc(S(=O)(=O)N(C)C)cc1 | NO |
| COCCCCN(C)c1ccccc1NS(=O)(=O)c1ccc(S(=O)(=O)N(C)C)cc1 | NO |
| CN(c1ccccc1NS(=O)(=O)c1ccc(S(=O)(=O)N(C)C)cc1)C1CCOC1 (centres unmarked) | NO |
| CN(Cc1cscn1)c1c(F)cccc1NS(=O)(=O)c1ccc(S(=O)(=O)N(C)C)cc1 | NO |

Here's the next entry for you.
input: # TODO verify EC50 < 800 nM strictly for this compound: CN(C)S(=O)(=O)c1ccc(S(=O)(=O)Nc2ccccc2N(CC2COC2)C2CCCCC2)cc1
output: YES

* * *

- Assay system: TRPML1 (Homo sapiens)
- Test name: Calcium flux in HEK293 overexpressing TRPML1 plasma membrane variant (FLIPR, Calcium 6 dye)
- Experimental setup: HEK293/TRPML1-PM clone A5 cells; 4-parameter logistic fit; read-out: TRPML1 calcium flux (FLIPR) dose response: EC50
Assay endpoint: EC50 (µM)
Answers are plain numbers, in µM.

| Molecule | Quantity unit | EC50 |
| --- | --- | --- |
| CN(CC1CCCO1)c1ccccc1NS(=O)(=O)c1ccc(S(=O)(=O)N(C)C)cc1 (stereo not shown) | µM | 1.39 |
| CN(c1ccccc1NS(=O)(=O)c1ccc(S(=O)(=O)N(C)C)cc1)C12CC(C)(C1)C2 | µM | 1.1 |
| CN(c1ccccc1NS(=O)(=O)c1ccc(S(=O)(=O)N(C)C)cc1)C1CCC(F)(F)CC1 | µM | 0.27 |
| CN(c1c(C#N)cccc1NS(=O)(=O)c1ccc(S(=O)(=O)N(C)C)cc1)C1CCCCC1 | µM | 0.0772 |
| CN(CC1CCOC(C)(C)C1)c1ccccc1NS(=O)(=O)c1ccc(S(=O)(=O)N(C)C)cc1 (stereo not shown) | µM | 1.16 |

Give EC50 for all molecules that follow.
1. CN(Cc1cncs1)c1ccccc1NS(=O)(=O)c1ccc(S(=O)(=O)N(C)C)cc1
2. CN(Cc1cnsc1)c1ccccc1NS(=O)(=O)c1ccc(S(=O)(=O)N(C)C)cc1
3. Cc1ccc(NS(=O)(=O)c2ccc(S(=O)(=O)N(C)C)cc2)c(N(C)C2CCCCC2)c1
4. CN(CC1(F)CC1)c1ccccc1NS(=O)(=O)c1ccc(S(=O)(=O)N(C)C)cc1
5. CC(C)n1cnc(CN(C)c2ccccc2NS(=O)(=O)c2ccc(S(=O)(=O)N(C)C)cc2)c1

output:
[0.25, 3.02, 0.33, 0.274, 8.98]

* * *

Kindly supply the reported pEC50 values for the records listed here.
- Assay system: TRPML1 (Homo sapiens)
- Test name: Calcium flux in HEK293 overexpressing TRPML1 plasma membrane variant (FLIPR, Calcium 6 dye)
- Experimental setup: HEK293/TRPML1-PM clone A5 cells; 4-parameter logistic fit; read-out: TRPML1 calcium flux (FLIPR) dose response: EC50
- Description: Example B1. Calcium Flux in HEK293 Overexpressing TRPML1 Plasma Membrane Variant—Calcium 6 Dye […] HEK293/TRPML1-PM clone A5 cells were trypsinized from flasks, counted, then diluted in media to 15,000 cells per 25 μL, and seeded into a black, 384-well viewplate, and cultured overnight. […] After incubating for 2 hours at 37° C., the plate was moved to the FLIPR in the read position. […]
Numbers only, as −log10 of the molar value.

| Item smiles | pEC50 |
| --- | --- |
| Cc1cccc(NS(=O)(=O)c2ccc(S(=O)(=O)N(C)C)cc2)c1N(C)C1CCCCC1 | 7.33 |
| Cc1ccc(N(C)C2CCCCC2)c(NS(=O)(=O)c2ccc(S(=O)(=O)N(C)C)cc2)c1 | 6.45 |
| CN(c1c(F)cccc1NS(=O)(=O)c1ccc(S(=O)(=O)N(C)C)cc1)C1CCCCC1 | 6.14 |
| CN(c1ccccc1NS(=O)(=O)c1ccc(S(=O)(=O)N(C)C)cc1)C1CCC(C)(C)CC1 | 6.29 |
| CN(C)S(=O)(=O)c1ccc(S(=O)(=O)Nc2ccccc2N(C)[C@H]2CC[C@@H](C)CC2)cc1 | 6.44 |

input: Fill blank: measured pEC50 of the compound CN(c1cc(F)ccc1NS(=O)(=O)c1ccc(S(=O)(=O)N(C)C)cc1)C1CCCCC1 is ____.
output: 5.66

* * *

- Assay system: TRPML1 (Homo sapiens, UniProt Q9GZU1)
- Test name: Calcium flux in HEK293 overexpressing TRPML1 plasma membrane variant (FLIPR, Calcium 6 dye)
- Experimental setup: HEK293/TRPML1-PM clone A5 cells; 4-parameter logistic fit; read-out: TRPML1 calcium flux (FLIPR) dose response: EC50
Assay endpoint: log10(EC50) (log10 of the value in nM)
For clarity, the numbers are log10 values of EC50 expressed in nM.

Below: 2 compounds and their reported log10(EC50).
| Compound | log10(EC50) |
| --- | --- |
| CN(CC1CCC1)c1c(Cl)cccc1NS(=O)(=O)c1ccc(S(=O)(=O)N(C)C)cc1 [Compound 69] | 2.62 |
| COCCCN(C)c1ccccc1NS(=O)(=O)c1ccc(S(=O)(=O)N(C)C)cc1 [Compound 34] | 3.51 |

Provide each entry's log10(EC50) from the list below.
1. CCN(CC)c1c(Cl)cccc1NS(=O)(=O)c1ccc(S(=O)(=O)N(C)C)cc1 [Compound 77]
2. CN(CC1CCC1)c1ccccc1NS(=O)(=O)c1ccc(S(=O)(=O)N(C)C)cc1 [Compound 106]

output:
[2.67, 2.57]

* * *

Provide the reported EC50 of each item.
- Assay system: TRPML1 (Homo sapiens, UniProt Q9GZU1)
- Test name: Calcium flux in HEK293 overexpressing TRPML1 plasma membrane variant (FLIPR, Calcium 6 dye)
- Experimental setup: HEK293/TRPML1-PM clone A5 cells; 4-parameter logistic fit; read-out: TRPML1 calcium flux (FLIPR) dose response: EC50
Numbers only, in nM.

| Compound | Quantity unit | EC50 |
| --- | --- | --- |
| CN(c1ccccc1NS(=O)(=O)c1ccc(S(=O)(=O)N(C)C)cc1)C1CCC(F)(F)C1 (stereo not shown) [Compound 99] | nM | 433 |

Okay, now this compound:
input: Request the reported EC50 associated with CN(c1ccc(C(F)(F)F)cc1NS(=O)(=O)c1ccc(S(=O)(=O)N(C)C)cc1)C1CCCCC1 [Compound 110]
output: 256

* * *

Would you mind telling me the reported log10 EC50 of each entry?
- Assay system: UniProt Q9GZU1
- Test name: Calcium flux in HEK293 overexpressing TRPML1 plasma membrane variant (FLIPR, Calcium 6 dye)
- Experimental setup: HEK293/TRPML1-PM clone A5 cells; 4-parameter logistic fit; read-out: TRPML1 calcium flux (FLIPR) dose response: EC50
Recall that a logarithmic scale is used here: each number is log10 of EC50 in nM.

Below are worked cases with known answers.
| Compound | Assay system | Result number |
| --- | --- | --- |
| CN(C)S(=O)(=O)c1ccc(S(=O)(=O)Nc2ccccc2N(C)[C@H]2CC[C@H](C)CC2)cc1 [Compound 28] | UniProt Q9GZU1 | 2.54 |
| CN(Cc1ccccn1)c1ccccc1NS(=O)(=O)c1ccc(S(=O)(=O)N(C)C)cc1 [Compound 46] | UniProt Q9GZU1 | 3.41 |
| CN(CC1CCC(C)(C)OC1)c1ccccc1NS(=O)(=O)c1ccc(S(=O)(=O)N(C)C)cc1 (centres unmarked) [Compound 32] | UniProt Q9GZU1 | 2.91 |
| CN(c1cccc(C(F)(F)F)c1NS(=O)(=O)c1ccc(S(=O)(=O)N(C)C)cc1)C1CCCCC1 [Compound 92] | UniProt Q9GZU1 | 3.87 |
| [2H]C([2H])([2H])N(c1ccccc1NS(=O)(=O)c1ccc(S(=O)(=O)N(C)C)cc1)C1CCCCC1 [Compound 102] | UniProt Q9GZU1 | 2.61 |
| Cc1cnccc1CN(C)c1ccccc1NS(=O)(=O)c1ccc(S(=O)(=O)N(C)C)cc1 [Compound 58] | UniProt Q9GZU1 | 3.84 |

Here are 5 compounds. What values of log10 EC50 were reported for them?
1. CN(CC1(F)CCCCC1)c1ccccc1NS(=O)(=O)c1ccc(S(=O)(=O)N(C)C)cc1 [Compound 96]
2. CN(Cc1ccn(C2CC2)n1)c1ccccc1NS(=O)(=O)c1ccc(S(=O)(=O)N(C)C)cc1 [Compound 94]
3. CN(c1ccccc1NS(=O)(=O)c1ccc(S(=O)(=O)N(C)C)cc1)C1(C)CCCCC1 [Compound 17]
4. CN(Cc1cnn(C2CC2)c1)c1ccccc1NS(=O)(=O)c1ccc(S(=O)(=O)N(C)C)cc1 [Compound 5]
5. Cc1nn(C)cc1CN(C)c1ccccc1NS(=O)(=O)c1ccc(S(=O)(=O)N(C)C)cc1 [Compound 50]

output:
2.39
3.40
2.28
3.39
3.82
